Tested on: Saccharomyces cerevisiae
Measurement Description: protein stability index of tFT-peptide fusion in wild type (PSI (0-1 scale)); higher = more stable (slower turnover)
Assay Conditions: genetic background: wild type
Assign label 1 whenever protein stability index does not fall below 0.2; assign label 0 whenever it does.

1. RLIQWLPVQFLN | label 0
2. LDKRNHLIKLLN | label 0
3. RLIQPLPVQFLND | label 1
4. PSLAASCWRVVG | label 0
5. RLIQPLPNQFLN | label 1
6. LVVYLSCVACINP | label 0
7. VRGAVGGWRLVGS | label 0
8. GLMMCSVGCWFR | label 1
9. RVTQLDAIYFRI | label 1
10. AITLPMCPLLLH | label 1
11. RLIQPLPVQHLN | label 0
12. LKILRLKMNHQN | label 0
13. ARWRVGLWRGHS | label 1
14. LVVYLSSVACIN | label 0
15. RSLRVTLPLYFR | label 0
16. RVTRLDAIYFCI | label 1
17. GLYMCSVGCWDR | label 1
18. GLPMCSVGCWFR | label 1
19. RVIRLDAIYFRI | label 1
20. GNYMCSVGCWFR | label 1
21. VRGAVTGWRLVG | label 0
22. KKHKKGQNQKIN | label 0
23. ASLAASFWRVVG | label 0
24. ARWRVGLYRGAS | label 1
25. VRGAVGGWRLVW | label 1
26. CTSCGQKFRTNN | label 1
27. RVLRVLLPLYFR | label 1
28. CLVSLPIMLFFR | label 0
29. PSLAASMWRVVG | label 0
30. GMYMCSVGCWFR | label 1
31. PDKRNHLNKLLN | label 0
32. CLVSLPILLFCR | label 0
33. ARWRVKLWRGAS | label 1
34. HDKRNHLIKLLN | label 0
35. CLVSLPELLFFR | label 0
36. RVTRLDAIYFRIP | label 1
37. RLIQPLLVQFLN | label 0
38. HKILRQKMNHQN | label 0
39. RSLRVLLLLYFR | label 1
40. CTSCGYKFRVNN | label 1

* * *

Recorded protein stability index by entry
Tested on: Saccharomyces cerevisiae
Measurement Description: protein stability index of tFT-peptide fusion (C-terminal peptide) (PSI (0-1 scale)); higher = more stable (slower turnover)
Assay Conditions: genetic background: das1 deletion; temperature: 30 C
Observation Type: protein stability index

1. ETQKEKRENAKP | 0.646
2. FGPRLLRVMRLL | 0.639
3. LINHSWLLLSVL | 0.363
4. GVCRFFCLVFCS | 0.507
5. VVVFGWIGYLYL | 0.311
6. LLLTAIRVLRMH | 0.587
7. QGGTWKKLVKMI | 0.643
8. VFKLGWVLCVLL | 0.286
9. IHTFSVVVVVAA | 0.128
10. VLVTFFIRSGVS | 0.356
11. PFFCFLLFCFSL | 0.439
12. VGFYGRWVCVAC | 0.287
13. LLPYSLSLALRA | 0.314
14. GGVWLSVVSWVG | 0.0995
15. TKGIIKKINIIM | 0.617
16. TLDCKFGRGGIG | 0.332
17. AVRLPFPLLVHL | 0.283
18. VFFCLFVLFLSG | 0.264
19. WVSFYLLFFFSF | 0.42
